relative viability for assorted molecules
system: VA-ES-BJ; assay: relative viability vs DMSO control (72 h) (fraction); higher = more viable cells; conditions: 0.01372 µM
measured_property: relative viability

CCN1CCN(Cc2ccc(Nc3ncc(F)c(-c4cc(F)c5nc(C)n(C(C)C)c5c4)n3)nc2)CC1 ... 0.994
Cn1cnc2c(F)c(Nc3ccc(Br)cc3F)c(C(=O)NOCCO)cc21 ... 1.02
Nc1cc(C(F)(F)F)c(-c2cc(N3CCOCC3)nc(N3CCOCC3)n2)cn1 ... 0.997
O=C(Nc1cnn2ccc(N3CCC[C@@H]3c3cc(F)ccc3F)nc12)N1CC[C@H](O)C1 ... 1.04
CN1CCC(COc2cnc(-c3cccc(Cn4nc(-c5cccc(C#N)c5)ccc4=O)c3)nc2)CC1 ... 1.02
C=CC(=O)N1CCC([C@@H]2CCNc3c(C(N)=O)c(-c4ccc(Oc5ccccc5)cc4)nn32)CC1 ... 0.982
Cc1nc(-c2cn3c(n2)-c2ccc(-c4cnn(C(C)(C)C(N)=O)c4)cc2OCC3)n(C(C)C)n1 ... 0.943
Cc1ccc(F)c(NC(=O)Nc2ccc(-c3cccc4[nH]nc(N)c34)cc2)c1 ... 1.05
CCc1cc2c(cc1N1CCC(N3CCOCC3)CC1)C(C)(C)c1[nH]c3cc(C#N)ccc3c1C2=O ... 1.02

###

tested on: SW1353; assay: relative viability vs DMSO control (72 h) (fraction); higher = more viable cells; details: 0.04115 µM
Where a name gives a salt, the structure may show the parent alone.
The label is condition met for relative viability below 0.9 and condition not met for relative viability equal to or exceeding 0.9.

CC(C)N1CCN(Cc2cnc(-c3cc(-c4cccc5[nH]ccc45)cc4[nH]ncc34)o2)CC1 ... condition not met
CN1CCN(c2ccc3nc(-c4c(N)c5c(F)cccc5[nH]c4=O)[nH]c3c2)CC1 ... condition not met
COc1cccc2c1C(=O)c1c(O)c3c(c(O)c1C2=O)C[C@@](O)(C(=O)CO)C[C@@H]3O[C@H]1C[C@H](N)[C@H](O)[C@H](C)O1 [Doxorubicin Hydrochloride] ... condition met
C[C@@H]1COCCN1c1cc(-c2ccnn2C)c2ccnc(-c3ccn[nH]3)c2n1 ... condition met
CNC(=O)c1cc(Oc2ccc(NC(=O)Nc3ccc(Cl)c(C(F)(F)F)c3)c(F)c2)ccn1 ... condition not met
Cc1cc(Nc2ncnc3ccc(NC4=NC(C)(C)CO4)cc23)ccc1Oc1ccn2ncnc2c1 ... condition not met
C=CC(=O)N1CCC[C@@H](n2nc(-c3ccc(Oc4ccccc4)cc3)c3c(N)ncnc32)C1 ... condition not met

###

test system: SYO-1; assay: relative viability vs DMSO control (72 h) (fraction); higher = more viable cells; details: 0.01372 µM
relative viability for assorted compounds
measured_property: relative viability

O=C(Nc1cnn2ccc(N3CCC[C@@H]3c3cc(F)ccc3F)nc12)N1CC[C@H](O)C1 ... 0.946
Cn1cnc2c(F)c(Nc3ccc(Br)cc3F)c(C(=O)NOCCO)cc21 ... 0.983
CN1CCN(c2ccc3nc(-c4c(N)c5c(F)cccc5[nH]c4=O)[nH]c3c2)CC1 ... 0.974
C=CC(=O)Nc1cccc(Oc2nc(Nc3ccc(N4CCN(C)CC4)cc3)nc3ccsc23)c1 ... 0.953
O=C(Cc1ccc(-c2ccc(OCCN3CCOCC3)cc2)cn1)NCc1ccccc1 ... 0.917
C[C@@H]1COCCN1c1cc(-c2ccnn2C)c2ccnc(-c3ccn[nH]3)c2n1 ... 0.799
Cc1nc(-c2cn3c(n2)-c2ccc(-c4cnn(C(C)(C)C(N)=O)c4)cc2OCC3)n(C(C)C)n1 ... 0.864

###

tested on: HT1080; assay: relative viability vs DMSO control (72 h) (fraction); higher = more viable cells; details: 0.04115 µM
measured_property: relative viability

C=CC(=O)N1CCC[C@@H](n2nc(-c3ccc(Oc4ccccc4)cc3)c3c(N)ncnc32)C1 ... 1.06
CCCS(=O)(=O)Nc1ccc(F)c(C(=O)c2c[nH]c3ncc(-c4ccc(Cl)cc4)cc23)c1F ... 1.07
Cc1nc(NC(=O)N2CCC[C@H]2C(N)=O)sc1-c1ccnc(C(C)(C)C(F)(F)F)c1 ... 1.04
CCN1CCN(Cc2ccc(Nc3ncc(F)c(-c4cc(F)c5nc(C)n(C(C)C)c5c4)n3)nc2)CC1 ... 1.07
Cn1cc(-c2cc3c(N4CCN(c5ncc([C@@](C)(N)c6ccc(F)cc6)cn5)CC4)ncnn3c2)cn1 ... 1.01
CN1CCC(COc2cnc(-c3cccc(Cn4nc(-c5cccc(C#N)c5)ccc4=O)c3)nc2)CC1 ... 1.07

###

tested on: KHOS-240S; test: relative viability vs DMSO control (72 h) (fraction); higher = more viable cells; details: 10 µM
measured_property: relative viability

CC(C)(C)c1cc(NC(=O)Nc2ccc(-c3cn4c(n3)sc3cc(OCCN5CCOCC5)ccc34)cc2)no1 ... 0.722
C=CC(=O)N1CCC([C@@H]2CCNc3c(C(N)=O)c(-c4ccc(Oc5ccccc5)cc4)nn32)CC1 ... 0.839
C[C@]1(O)C[C@@H](c2nc(-c3ccc4ccc(-c5ccccc5)nc4c3)c3c(N)nccn32)C1 ... 0.56
N#CC[C@H](C1CCCC1)n1cc(-c2ncnc3[nH]ccc23)cn1 ... 0.583
CC(C)N1CCN(Cc2cnc(-c3cc(-c4cccc5[nH]ccc45)cc4[nH]ncc34)o2)CC1 ... 0.455
CNC(=O)c1cc(Oc2ccc(NC(=O)Nc3ccc(Cl)c(C(F)(F)F)c3)c(F)c2)ccn1 ... 0.509
COCc1c(-c2cc3cc(C)cc(OC)c3s2)c2c(N)ncnn2c1CN1CCNC(=O)C1 ... 0.511
COc1cc2nccc(Oc3ccc(NC(=O)Nc4cc(C)on4)c(Cl)c3)c2cc1OC ... 0.561

###

system: G401; test: relative viability vs DMSO control (72 h) (fraction); higher = more viable cells; settings: 0.01372 µM
relative viability for assorted compounds
measured_property: relative viability

CC[C@H](Nc1ncnc2[nH]cnc12)c1nc2cccc(F)c2c(=O)n1-c1ccccc1 ... 1.02
N#CC[C@H](C1CCCC1)n1cc(-c2ncnc3[nH]ccc23)cn1 ... 1.02
Cc1cc(Nc2ncnc3ccc(NC4=NC(C)(C)CO4)cc23)ccc1Oc1ccn2ncnc2c1 ... 1.01
CCCS(=O)(=O)Nc1ccc(F)c(C(=O)c2c[nH]c3ncc(-c4ccc(Cl)cc4)cc23)c1F ... 1.01
COc1cc2nccc(Oc3ccc(NC(=O)Nc4cc(C)on4)c(Cl)c3)c2cc1OC ... 1.04
Cc1cnc(Nc2ccc(OCCN3CCCC3)cc2)nc1Nc1cccc(S(=O)(=O)NC(C)(C)C)c1 ... 1.04
Cc1ccc(NC(=O)c2ccc(CN3CCN(C)CC3)cc2)cc1Nc1nc(-c2cccnc2)cs1 ... 0.979
Cn1cnc2c(F)c(Nc3ccc(Br)cc3F)c(C(=O)NOCCO)cc21 ... 0.983

###

system: MES-SA; test: relative viability vs DMSO control (72 h) (fraction); higher = more viable cells; settings: 0.1235 µM
measured_property: relative viability

COc1c(OCCCN2CCOCC2)ccc2c1N=C(NC(=O)c1cnc(N)nc1)N1CCN=C21 ... 0.273
CC(C)N1CCN(Cc2cnc(-c3cc(-c4cccc5[nH]ccc45)cc4[nH]ncc34)o2)CC1 ... 0.979
CNC(=O)c1cc(Oc2ccc(NC(=O)Nc3ccc(Cl)c(C(F)(F)F)c3)c(F)c2)ccn1 ... 0.997
COc1cc2nccc(Oc3ccc(NC(=O)Nc4cc(C)on4)c(Cl)c3)c2cc1OC ... 0.923
Nc1cc(C(F)(F)F)c(-c2cc(N3CCOCC3)nc(N3CCOCC3)n2)cn1 ... 0.811
Cc1cnc(Nc2ccc(OCCN3CCCC3)cc2)nc1Nc1cccc(S(=O)(=O)NC(C)(C)C)c1 ... 0.861
CCCS(=O)(=O)Nc1ccc(F)c(C(=O)c2c[nH]c3ncc(-c4ccc(Cl)cc4)cc23)c1F ... 0.967
C[C@@H]1COCCN1c1cc(-c2ccnn2C)c2ccnc(-c3ccn[nH]3)c2n1 ... 0.489
C[C@@H]1CCN(C(=O)CC#N)C[C@@H]1N(C)c1ncnc2[nH]ccc12 ... 0.974
C[C@]1(O)C[C@@H](c2nc(-c3ccc4ccc(-c5ccccc5)nc4c3)c3c(N)nccn32)C1 ... 0.958

###

test system: SW982; assay: relative viability vs DMSO control (72 h) (fraction); higher = more viable cells; settings: 0.3704 µM
Structures can show the parent of a compound that is named as a salt.
relative viability for assorted compounds
measured_property: relative viability

COc1cc2/c(=N/c3ccc(Br)cc3F)nc[nH]c2cc1OCC1CCN(C)CC1 ... 0.873
C=CC(=O)N1CCC[C@@H](n2nc(-c3ccc(Oc4ccccc4)cc3)c3c(N)ncnc32)C1 ... 1.06
COc1cc2nccc(Oc3ccc(NC(=O)Nc4cc(C)on4)c(Cl)c3)c2cc1OC ... 1.08
CNC(=O)c1ccc(-c2cnc3ncc(Cc4ccc5ncccc5c4)n3n2)cc1F ... 1.06
Cc1nc(NC(=O)N2CCC[C@H]2C(N)=O)sc1-c1ccnc(C(C)(C)C(F)(F)F)c1 ... 0.927
COc1cccc2c1C(=O)c1c(O)c3c(c(O)c1C2=O)C[C@@](O)(C(=O)CO)C[C@@H]3O[C@H]1C[C@H](N)[C@H](O)[C@H](C)O1 [Doxorubicin Hydrochloride] ... 0.161
Cc1cnc(Nc2ccc(OCCN3CCCC3)cc2)nc1Nc1cccc(S(=O)(=O)NC(C)(C)C)c1 ... 0.394
N#CC[C@H](C1CCCC1)n1cc(-c2ncnc3[nH]ccc23)cn1 ... 0.879
Cc1nc(-c2cn3c(n2)-c2ccc(-c4cnn(C(C)(C)C(N)=O)c4)cc2OCC3)n(C(C)C)n1 ... 0.796
CC(=O)Nc1cccc(-n2c(=O)n(C3CC3)c(=O)c3c(Nc4ccc(I)cc4F)n(C)c(=O)c(C)c32)c1 ... 0.848
Cn1cc(-c2cc3c(N4CCN(c5ncc([C@@](C)(N)c6ccc(F)cc6)cn5)CC4)ncnn3c2)cn1 ... 0.928
Cc1ccc(F)c(NC(=O)Nc2ccc(-c3cccc4[nH]nc(N)c34)cc2)c1 ... 1.08
CCc1cc2c(cc1N1CCC(N3CCOCC3)CC1)C(C)(C)c1[nH]c3cc(C#N)ccc3c1C2=O ... 1.05
CC(C)(C)c1cc(NC(=O)Nc2ccc(-c3cn4c(n3)sc3cc(OCCN5CCOCC5)ccc34)cc2)no1 ... 1.04
CCCS(=O)(=O)Nc1ccc(F)c(C(=O)c2c[nH]c3ncc(-c4ccc(Cl)cc4)cc23)c1F ... 0.988
